Every entry's value here was drawn from patent EP2014310A2.

Target: T1, human KDR-Fc fusion (R&D Systems #357-KD-050) (human, UniProt P35968 20-764)
T1 construct: bought
T1 sequence (P35968 20-764): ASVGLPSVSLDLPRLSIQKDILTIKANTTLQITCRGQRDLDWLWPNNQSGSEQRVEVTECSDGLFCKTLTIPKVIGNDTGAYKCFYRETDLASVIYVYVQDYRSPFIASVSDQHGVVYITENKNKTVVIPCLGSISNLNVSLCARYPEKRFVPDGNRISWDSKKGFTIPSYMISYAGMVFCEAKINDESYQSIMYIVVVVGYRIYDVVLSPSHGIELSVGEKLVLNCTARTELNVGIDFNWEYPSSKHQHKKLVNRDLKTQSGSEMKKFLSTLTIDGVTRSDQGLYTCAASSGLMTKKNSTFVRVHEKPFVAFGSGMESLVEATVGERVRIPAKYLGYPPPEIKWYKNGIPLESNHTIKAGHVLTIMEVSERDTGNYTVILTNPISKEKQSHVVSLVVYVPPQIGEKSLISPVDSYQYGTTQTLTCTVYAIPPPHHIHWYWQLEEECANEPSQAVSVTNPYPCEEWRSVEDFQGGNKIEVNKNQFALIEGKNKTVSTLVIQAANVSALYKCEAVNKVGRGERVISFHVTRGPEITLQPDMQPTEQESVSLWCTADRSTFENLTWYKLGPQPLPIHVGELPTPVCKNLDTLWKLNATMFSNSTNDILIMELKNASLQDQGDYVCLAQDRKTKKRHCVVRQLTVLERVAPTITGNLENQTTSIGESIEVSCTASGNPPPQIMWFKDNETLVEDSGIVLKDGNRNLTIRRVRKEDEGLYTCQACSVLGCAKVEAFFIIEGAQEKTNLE
Assay: fluorescence anisotropy, fluorescein-labeled peptide
pKd: −log10 of the molar value. Bridge positions count the residues as written; N and C are the ends.
measured_attribute: pKd

Ac-GDDSYCMMNEKGWWNCYLYDPGGGK-NH2 (cysteine pairing not given here; also: C-terminal Lys fluorescein-labeled in some assays) [SEQ ID NO:297]: 5.89
Ac-AGDWGCSLGNWYWCSTEGTGGGK-NH2 (disulfide 6-14 (inferred); not fully specified) [SEQ ID NO:313]: 5.70
Ac-AGWIECYHPDGICYHFGTGGGK-NH2 (disulfide 6-13 (inferred); not fully specified) [SEQ ID NO:269]: 6.49
Ac-AGVGWVECYQSTGFCYHSRDGTGGGK-NH2 (cysteine pairing not given here; also: C-terminal Lys fluorescein-labeled in some assays) [SEQ ID NO:284]: 5.89
Ac-AGQAWVECYAETGYCWPRSWGTGGGK-NH2 (disulfide 8-15 (inferred); not fully specified) [SEQ ID NO:282]: 6.15
Ac-AQRSWYLGPPYYEEWDPIPNGGK-NH2 (not fully specified) [SEQ ID NO:309]: 5.74
Ac-GDGSWCEMRQDVGKWNCFSDDPGGGK-NH2 (disulfide 6-17 (inferred); not fully specified) [SEQ ID NO:299]: 6.21
Ac-AGPDWCAADWYYCYITGTGGGK-NH2 (disulfide 6-13 (inferred); not fully specified) [SEQ ID NO:275]: 7.24
